# CLint scaled at 0.2 µM per record follows
TEST DESCRIPTION: Intrinsic clearance in mouse liver microsomes at 0.2 uM
Format: ADME, Microsome

[
  {
    "COMPOUND STRING": "Cc1c(COCCCCOCC2(C)COC2)[nH]c2ccccc2c1=O",
    "VALUE OPERATOR": "=",
    "CLint scaled at 0.2 µM / mL/min/kg": 295
  },
  {
    "COMPOUND STRING": "Cc1c(COc2cccc(OCC3CCOCC3)n2)[nH]c2ccccc2c1=O",
    "VALUE OPERATOR": "=",
    "CLint scaled at 0.2 µM / mL/min/kg": 984
  },
  {
    "COMPOUND STRING": "Cc1c(COc2cccc(OCC3CCOCC3)c2)[nH]c2ccc(Cl)cc2c1=O",
    "VALUE OPERATOR": ">",
    "CLint scaled at 0.2 µM / mL/min/kg": 1000
  },
  {
    "COMPOUND STRING": "Cc1c(COc2cncc(OCCC(C)(C)O)c2)[nH]c2ccccc2c1=O",
    "VALUE OPERATOR": "=",
    "CLint scaled at 0.2 µM / mL/min/kg": 225
  },
  {
    "COMPOUND STRING": "O=c1c(Cl)c(COc2cccc(OCC3CCOCC3)c2)[nH]c2ccccc12",
    "VALUE OPERATOR": ">",
    "CLint scaled at 0.2 µM / mL/min/kg": 1000
  },
  {
    "COMPOUND STRING": "COC(C)(C)CCOc1cccc(OCc2[nH]c3ccccc3c(=O)c2C)c1",
    "VALUE OPERATOR": ">",
    "CLint scaled at 0.2 µM / mL/min/kg": 1000
  },
  {
    "COMPOUND STRING": "COCCOCCCCc1[nH]c2ccccc2c(=O)c1C",
    "VALUE OPERATOR": ">",
    "CLint scaled at 0.2 µM / mL/min/kg": 1000
  },
  {
    "COMPOUND STRING": "Cc1c(COc2cncc(OCC3CCOCC3)c2)[nH]c2ccccc2c1=O",
    "VALUE OPERATOR": "=",
    "CLint scaled at 0.2 µM / mL/min/kg": 238
  },
  {
    "COMPOUND STRING": "Cc1c(COc2cccc(OCCCC(F)(F)F)c2)nc2ccccc2c1O",
    "VALUE OPERATOR": ">",
    "CLint scaled at 0.2 µM / mL/min/kg": 1000
  },
  {
    "COMPOUND STRING": "CCCCCCCCCc1[nH]c2ccccc2c(=O)c1C",
    "VALUE OPERATOR": ">",
    "CLint scaled at 0.2 µM / mL/min/kg": 1000
  },
  {
    "COMPOUND STRING": "O=c1cc(COc2cccc(OCC3CCOCC3)c2)[nH]c2ccccc12",
    "VALUE OPERATOR": "=",
    "CLint scaled at 0.2 µM / mL/min/kg": 197
  }
]

---

TEST DESCRIPTION: Oral availability in Sprague-Dawley rat at 1 mg/kg
Type: ADME, organism-based
Design: dose 1 mg/kg
EXPERIMENTAL PARAMETERS: in vivo

[
  {
    "COMPOUND STRING": "Cc1c(COc2cc(OCCC(C)(C)O)ccn2)[nH]c2ccccc2c1=O",
    "bioavailability, %": 78
  }
]
